# Tested on: MDA-MB231
# protocol: MTT assay, MDA-MB231 breast cancer cells
# Assay type: cell-based
# test.settings: Homo sapiens, MDA-MB-231; −log[GI50], MDA-MB231; read-out: Experimental pGI50 (converted)
Please use 1 (yes) for GI50 under 9 µM and 0 (no) for everything else, ties included.

(Q) Field: below-cutoff. Rule: recorded GI50 strictly less than 9 µM. Subject: COc1ccccc1Nc1nc(N)nc(-c2ccc(N(C)C)cc2)n1
(A) 1 (yes)

(Q) Field: below-cutoff. Rule: recorded GI50 strictly less than 9 µM. Subject: Nc1nc(Nc2ccc(F)cc2)nc(-c2ccc(Cl)cc2)n1
(A) 0 (no)

(Q) Field: below-cutoff. Rule: recorded GI50 strictly less than 9 µM. Subject: Nc1nc(Nc2ccc(Br)cc2)nc(-c2cccc(F)c2)n1
(A) 0 (no)

(Q) Field: below-cutoff. Rule: recorded GI50 strictly less than 9 µM. Subject: Cc1ccc(Nc2nc(N)nc(-c3cccc(C)c3)n2)cc1
(A) 1 (yes)

(Q) Field: below-cutoff. Rule: recorded GI50 strictly less than 9 µM. Subject: COc1ccc(-c2nc(N)nc(Nc3ccccc3OC)n2)cc1
(A) 0 (no)

(Q) Field: below-cutoff. Rule: recorded GI50 strictly less than 9 µM. Subject: CN(C)c1ccc(-c2nc(N)nc(Nc3ccc(F)cc3)n2)cc1
(A) 1 (yes)

(Q) Field: below-cutoff. Rule: recorded GI50 strictly less than 9 µM. Subject: COc1ccc(-c2nc(N)nc(Nc3ccccc3F)n2)cc1
(A) 1 (yes)

(Q) Field: below-cutoff. Rule: recorded GI50 strictly less than 9 µM. Subject: COc1ccc(Nc2nc(N)nc(-c3cccc(F)c3)n2)cc1
(A) 1 (yes)

(Q) Field: below-cutoff. Rule: recorded GI50 strictly less than 9 µM. Subject: Cc1cccc(-c2nc(N)nc(Nc3ccc(OC(F)(F)F)cc3)n2)c1
(A) 0 (no)

* * *

# Tested on: SKBR-3
# protocol: MTT assay, SKBR-3 breast cancer cells
# Assay type: cell-based
# test.settings: Homo sapiens, SK-BR-3; 10 μM, 72 h after the treatment, MTT, mean of three independent experiments; read-out: Percentage of cell viability SKBR-3
# Procedure: The prepared compounds 1–126 were tested on three breast cancer cell lines namely, MDA-MB231, SKBR-3 and MCF-7 using MTT assay. SKBR-3 and MCF-7 cell lines are estrogen and progesterone hormone positive cell lines often used as a model for the hormone therapy.[18] […] Initially, all the prepared compounds 1–126 were tested on these three cancer cell lines at the screening concentration (10 μM) and percentage of cell viability was calculated 72 h after the treatment (Table 1). […]
Assignment: determine reported viability at 10 µM for the given compounds.
Record the value in %, omitting the unit from your answer.

(Q) I have this compound here, Nc1nc(Nc2ccc(OC(F)(F)F)cc2)nc(-c2ccc(Cl)cc2)n1 , and I need its recorded viability at 10 µM.
(A) 83

(Q) I have this compound here, COc1ccc(Nc2nc(N)nc(-c3ccc(Cl)cc3)n2)cc1 , and I need its recorded viability at 10 µM.
(A) 90

(Q) I have this compound here, Nc1nc(Nc2ccc(Br)cc2)nc(-c2ccc(OC(F)(F)F)cc2)n1 , and I need its recorded viability at 10 µM.
(A) 96

(Q) I have this compound here, COc1ccc(-c2nc(N)nc(Nc3cccc(Cl)c3)n2)cc1 , and I need its recorded viability at 10 µM.
(A) 45

(Q) I have this compound here, COc1ccccc1Nc1nc(N)nc(-c2ccc(Br)cc2)n1 , and I need its recorded viability at 10 µM.
(A) 89

(Q) I have this compound here, Nc1nc(Nc2ccccc2F)nc(-c2ccc(F)cc2)n1 , and I need its recorded viability at 10 µM.
(A) 85

(Q) I have this compound here, COc1ccccc1Nc1nc(N)nc(-c2ccc(N(C)C)cc2)n1 , and I need its recorded viability at 10 µM.
(A) 48

(Q) I have this compound here, Nc1nc(Nc2ccccc2)nc(-c2ccc(OCc3ccccc3)cc2)n1 , and I need its recorded viability at 10 µM.
(A) 75

(Q) I have this compound here, COc1ccc(-c2nc(N)nc(Nc3ccc(Br)cc3)n2)cc1 , and I need its recorded viability at 10 µM.
(A) 100

Ref: paper PMC9050923
